meta.source: patent US20260274955A1

MEASURED_TARGET: anti-CD28 Fab (SEQ ID NOs: 202, 203)
Sequence (VH, as listed by the source, chain 1 of 2): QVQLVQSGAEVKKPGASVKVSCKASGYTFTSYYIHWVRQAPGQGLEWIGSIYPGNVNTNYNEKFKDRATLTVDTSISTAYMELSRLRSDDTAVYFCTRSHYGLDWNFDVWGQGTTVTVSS
Sequence (VL, as listed by the source, chain 2 of 2): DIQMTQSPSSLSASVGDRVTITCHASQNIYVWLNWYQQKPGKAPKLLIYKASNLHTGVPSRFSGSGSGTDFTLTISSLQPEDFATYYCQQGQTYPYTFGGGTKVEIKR
ASSAY_COMMENT: phage ELISA, Fab on plate;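 note: ELISA of crude clonal phage supernatants on the plate, wells preloaded with CD28 antigen or only blocking buffer, captured phage read out via HRP-linked anti-M13 antibody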

{"BINDER": "TCSAGATYKWPACF [Phage-1172]", "Anti-CD28 Fab signal": 1.29}
{"BINDER": "NCAAGAMYSWPTCL [Phage-1178]", "Anti-CD28 Fab signal": 1.25}
{"BINDER": "SCAAGAAYAWPWCL [Phage-1213]", "Anti-CD28 Fab signal": 1.05}
{"BINDER": "LCSAGAMYPWPVCL [Phage-1193]", "Anti-CD28 Fab signal": 1.19}
{"BINDER": "TCAAGAHYTWPTCL [Phage-1111]", "Anti-CD28 Fab signal": 1.47}
{"BINDER": "TCAAGVHFGWPLCF [Phage-1107]", "Anti-CD28 Fab signal": 1.49}
{"BINDER": "SCAAGFDYGWPMCL [Phage-1197]", "Anti-CD28 Fab signal": 1.16}
{"BINDER": "TCEDGFHFSWPECF [Phage-1123]", "Anti-CD28 Fab signal": 1.44}
